Target: T1, H. sapiens EHMT2 catalytic subunit (amino acids 913 to 1193) (H. sapiens, UniProt Q96KQ7 913-1193)
T1 construct: EHMT2 (G9a, KMT1C), human, catalytic subunit, amino acids 913 to 1193; Plasmid provided by the laboratory of Peter W. Lewis; The tag is surmised from the nickel column purification; also called G9a; KMT1C; source: Rosetta E. coli, purified (HisTrap FF nickel column, dialysis)
T1 sequence (looked up): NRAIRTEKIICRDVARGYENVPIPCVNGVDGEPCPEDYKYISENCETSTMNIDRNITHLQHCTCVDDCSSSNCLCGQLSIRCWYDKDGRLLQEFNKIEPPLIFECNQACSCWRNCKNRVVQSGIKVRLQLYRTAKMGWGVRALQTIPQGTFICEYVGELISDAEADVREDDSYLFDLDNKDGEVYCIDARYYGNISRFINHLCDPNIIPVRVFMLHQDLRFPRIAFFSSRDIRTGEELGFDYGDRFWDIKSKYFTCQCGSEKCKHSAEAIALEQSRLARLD
Experiment: fluorescence polarisation; enzyme titrated (0-10 uM, monomeric) against a fixed 20-100 nM of N-terminus 5-FAM labeled H3(1-17) peptide, with 100 uM SAH; 50 mM HEPES pH 7.9, 2 mM MgCl2, 0.5 mM DTT, 0.1 mM AEBSF, 0.01% Triton X-100, 10% glycerol; 10 min at 25 °C; one site specific binding fit
Details: both partners purified
*: point of attachment. 5FAM = O=C1OC2(c3ccc(O)cc3Oc3cc(O)ccc32)c2ccc(C(=O)*)cc21
Each entry below lists one item and its recorded Kd value.
EXPERIMENTAL_ENDPOINT: Kd (nM)

BINDER	TEST_VALUE
ARTKQTARKSTGGKAPR (peptide, UniProt P68431 2-18, looked up, 5-Carboxyfluorescein (5-FAM) on the N-terminus; dimethyl-lysine at 9, Histone H3, residues 1-17, lysine 9 dimethylated; Made on Rink-amide resin, so the C-terminus is probably an amide (surmised); also called H3K9me2; source: synthetic peptide (solid phase synthesis on Rink-amide ChemMatrix resin, C18-HPLC-purified)) [H3(1-17) K9 dimethylated peptide, N-terminus 5-FAM labeled]	40
ARTKQTARKSTGGKAPR (peptide, UniProt P68431 2-18, looked up, 5-Carboxyfluorescein (5-FAM) on the N-terminus; monomethyl-lysine at 9, Histone H3, residues 1-17, lysine 9 monomethylated; Made on Rink-amide resin, so the C-terminus is probably an amide (surmised); also called H3K9me1; source: synthetic peptide (solid phase synthesis on Rink-amide ChemMatrix resin, C18-HPLC-purified)) [H3(1-17) K9 monomethylated peptide, N-terminus 5-FAM labeled]	26
5FAM-ARTKQTARKSTGGKAPR-NH2 (peptide, UniProt P68431 2-18, looked up, Histone H3, residues 1-17, lysine 9 unmodified; Made on Rink-amide resin, so the C-terminus is probably an amide (surmised); Residues 1-17 are the same in H3.1, H3.2 and H3.3; also called H3K9un; source: synthetic peptide (solid phase synthesis on Rink-amide ChemMatrix resin, C18-HPLC-purified)) [H3(1-17) K9 unmodified peptide, N-terminus 5-FAM labeled]	16

Hello, the source for this data is paper PMC10404681, in case you need it.
